Target: Solute carrier family 2, facilitated glucose transporter member 1 (Homo sapiens)
Test: ST_JUDE_LEISH: Cytotoxicity at 2uM final concentration against transgenic Leishmania Mexicana promastigotes LmGLUT1 that are glucose transport deficient and complemented with the human glucose transporter GLUT1. Activity is measured by DNA content using SYBR green in vitro
Format: functional
# Lookup of reported inhibition keyed by entry
The figure you give is taken to be in %; do not add the unit.

Reference set (5 entries):
| molecule | val |
| --- | --- |
| COc1ccc2ncc(F)c(CCN3CCC(CNCc4cccc5c4OCO5)CC3)c2n1 | 2.01 |
| Cc1ccc(NC(=O)c2cccc(C#N)c2)cc1-c1ccc(C(=O)Nc2ccncc2)cc1 | 7.71 |
| O=C(Nc1cc(F)cc(F)c1)N1CCOC(CCN2CCC3(CCc4ccccc43)CC2)(c2ccc(Cl)c(Cl)c2)C1 (stereo not drawn) | 3.28 |
| Cc1cc(N)c2cc(NC(=O)/C=C/c3ccccc3Cl)ccc2n1 | -4.75 |
| Cc1ccnc(NC(=O)c2cc(-c3cccc([N+](=O)[O-])c3)nc3onc(C)c23)c1 | 6.8 |

[Q] Entry Cc1ccc([N+](=O)[O-])cc1NC(=O)N(CC(O)c1ccccc1)C1CCCCC1 (stereo not drawn) has what inhibition?
[A] 1.93

[Q] Entry Cc1cc(-c2nc3cncc(-c4cccc(CN5CCCC5Cc5cccnc5)c4)c3n2C)nn1C (stereo not drawn) has what inhibition?
[A] -1.04

[Q] Entry CCCCCCN1CCCN(Cc2ccc(C(=O)Nc3ccc(C)c(F)c3)cc2)CC1 has what inhibition?
[A] 11.8

[Q] Entry CN1CCC(NC(=O)c2cccc(Nc3cc(Nc4cccc(Br)c4)ncn3)c2)CC1 has what inhibition?
[A] 4.2

[Q] Entry COCC(=O)Nc1nc2ccccc2[nH]1 has what inhibition?
[A] 2.56

[Q] Entry CCOc1ccc(/C=C/C(=O)Nc2cccc3c2CCN(C)C3)cc1 has what inhibition?
[A] 8.24

[Q] Entry CCC[C@@H]([C@@H](CC1CCCCC1)C(=O)N[C@H](C(=O)Nc1nccs1)C(C)(C)SCCNC(=O)OCc1ccccn1)N(O)C=O has what inhibition?
[A] -3.15

[Q] Entry CC(=O)Nc1ccc(OCCCCCOc2ccc(NC(C)=O)cc2Cl)c(Cl)c1 has what inhibition?
[A] 1.91

[Q] Entry Cc1cccc2nc(-c3ccc(-c4ccc(CN5CCN(CC6CCCN(C)C6)CC5)cc4)cc3)[nH]c12 (stereo not drawn) has what inhibition?
[A] 8.82

[Q] Entry O=[N+]([O-])c1cccc(CNCC2CCC(CNCc3cccc([N+](=O)[O-])c3)CC2)c1 (stereo not drawn) has what inhibition?
[A] 2.25

[Q] Entry CCOc1cc(C(=O)NC2CC(C)(C)NC(C)(C)C2)ccc1-c1nc2cc(Cl)ccc2[nH]1 has what inhibition?
[A] 1.25

[Q] Entry Fc1ccc2[nH]c(-c3ccc(-c4ccc(CNCCc5ccncc5)cc4)cc3)nc2c1 has what inhibition?
[A] 4.9

[Q] Entry O=C(/C=C/c1ccc(Br)cc1)NCCCCCN1CCC(c2c[nH]c3ccccc23)CC1 has what inhibition?
[A] 25.2

[Q] Entry CC(C)C[C@H]1C(=O)N[C@H](C2Cc3ccccc3C2)C(=O)N1[C@@H](C(=O)Nc1ccccc1OCc1ccccc1)c1ccc(F)cc1F has what inhibition?
[A] 0.86

[Q] Entry CC(C)(CNCc1cccc(Oc2ccccc2)c1)c1nc(-c2ccnc(N)n2)c(-c2ccc(Cl)c(O)c2)[nH]1 has what inhibition?
[A] -0.85

[Q] Entry CC(C)(C)c1ccc(CN2CCC(CNC(=O)c3cc(-c4ccccc4C(F)(F)F)cs3)C2)cc1 (stereo not drawn) has what inhibition?
[A] 1.63

[Q] Entry COc1ccc(CNCc2cccc(-c3cccc(-c4nc5cc(F)ccc5[nH]4)c3)c2)cc1 has what inhibition?
[A] 2.28

[Q] Entry CS(=O)(=O)N1CC2(CCN(CCC(NC(=O)Nc3ccccc3)c3ccc(Cl)c(Cl)c3)CC2)c2ccccc21 (stereo not drawn) has what inhibition?
[A] 3.59

[Q] Entry CCc1c(C)nc(-n2nc(C)cc2NC(=O)CC(c2ccccc2)c2ccccc2)[nH]c1=O has what inhibition?
[A] -2.32

[Q] Entry CCN(CC)CCCC(C)Nc1ccnc2cc(C#N)ccc12 (stereo not drawn) has what inhibition?
[A] -0.82

[Q] Entry N#Cc1cc([N+](=O)[O-])ccc1-n1nc(-c2cccc(Cl)c2)n(CC2CCCO2)c1=S (stereo not drawn) has what inhibition?
[A] 2.07

[Q] Entry CCCCC1=CC2C(=O)C(C(=O)OC)=CN=C2C=C1OCc1ccccc1 (stereo not drawn) has what inhibition?
[A] -0.41

[Q] Entry COc1cccc2c(NN=Cc3ccc(Cl)cc3)ccnc12 has what inhibition?
[A] 2.42
